- Species: Homo sapiens
- Protocol description: Selectivity index, ratio of IC50 for human recombinant MAOA to IC50 for human recombinant MAOB
Endpoint: Ratio IC50

COc1ccc(-c2c(O)c3ccccc3oc2=O)cc1 ... > 1.4

According to the records, this compound `COc1ccc(-c2c(O)c3cc(Cl)ccc3oc2=O)cc1Cl` displays Ratio IC50 of > 36

The recorded Ratio IC50 for `COc1ccc(-c2c(O)c3cc(C)ccc3oc2=O)cc1Cl` is > 2.3

Summary for this compound, `COc1ccc(-c2c(O)c3cc(C)ccc3oc2=O)cc1` : Ratio IC50 is > 3.1

---

- Target of assay: UniProt P27338
- Sequence (P27338 whole entry): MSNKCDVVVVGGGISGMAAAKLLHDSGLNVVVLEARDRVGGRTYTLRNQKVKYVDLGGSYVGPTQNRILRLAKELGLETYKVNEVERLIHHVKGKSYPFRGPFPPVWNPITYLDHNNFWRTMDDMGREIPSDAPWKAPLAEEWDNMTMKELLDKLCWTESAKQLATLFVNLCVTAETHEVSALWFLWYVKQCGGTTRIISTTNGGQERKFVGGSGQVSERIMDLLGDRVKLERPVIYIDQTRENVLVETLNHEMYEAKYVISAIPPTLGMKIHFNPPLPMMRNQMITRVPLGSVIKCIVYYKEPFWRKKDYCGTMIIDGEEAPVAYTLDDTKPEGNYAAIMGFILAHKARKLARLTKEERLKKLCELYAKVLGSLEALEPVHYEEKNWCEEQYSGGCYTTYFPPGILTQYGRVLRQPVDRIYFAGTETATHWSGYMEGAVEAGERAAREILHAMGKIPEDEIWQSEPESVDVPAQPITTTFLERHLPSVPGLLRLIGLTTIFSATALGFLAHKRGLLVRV
- Protocol description: Inhibition of human recombinant MAOB expressed in baculovirus-infected BTI insect cells assessed as using transformed p-tyramine after 15 mins by fluorimetric assay
Endpoint: pIC50
In plain terms, pIC50 is the concentration in mol/L turned into minus its base-10 logarithm.

COc1ccc(-c2c(O)c3cc(Cl)ccc3oc2=O)cc1Cl ... 5.55
COc1ccc(-c2c(O)c3ccccc3oc2=O)cc1 ... 4.16
COc1ccc(-c2c(O)c3cc(C)ccc3oc2=O)cc1 ... 4.49

As a next step, examine the compound that follows.
For record `COc1ccc(-c2c(O)c3cc(C)ccc3oc2=O)cc1Cl` the listed pIC50 is 4.37
